Overview of recorded IC50 for various compounds
- System: KRAS G12V binding to BRAF (Homo sapiens (Human), UniProt P01116+P62937, G12V)
- Sequence (P01116-2 other isoform, or with tags, fused parts or gaps G12V): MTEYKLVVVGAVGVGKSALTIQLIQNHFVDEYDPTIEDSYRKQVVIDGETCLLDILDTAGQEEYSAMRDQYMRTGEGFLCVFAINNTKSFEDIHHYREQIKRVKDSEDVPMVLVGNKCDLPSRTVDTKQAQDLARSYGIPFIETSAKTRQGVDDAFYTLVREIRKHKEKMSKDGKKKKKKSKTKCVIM
- Sequence (P62937 whole entry): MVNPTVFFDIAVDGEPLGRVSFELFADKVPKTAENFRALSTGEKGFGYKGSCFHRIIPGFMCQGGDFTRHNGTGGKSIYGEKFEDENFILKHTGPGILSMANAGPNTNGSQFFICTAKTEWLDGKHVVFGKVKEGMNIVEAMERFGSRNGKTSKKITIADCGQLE
- Assay details: KRAS-BRAF with CYPA (500 nM) interaction assay (TR-FRET), G12V
Provide only the numeric value, understood in nM.

1) CO[C@@H](C)c1ncc(N2CCN(CC(F)(F)F)CC2)cc1-c1c2c3cc(c(F)cc3n1CC(F)(F)F)-c1csc(n1)C[C@H](NC(=O)[C@H](C(C)C)N1CC[C@]3(CCN(C(=O)[C@H](F)Cl)C3)C1=O)C(=O)N1CCC[C@H](N1)C(=O)OCC(C)(C)C2 (atropisomer, axis not shown; (M))
299
2) CCn1c(-c2cc(N3CCN(C)CC3)cnc2[C@H](C)OC)c2c3cc(c(F)cc31)-c1csc(n1)C[C@H](NC(=O)[C@H](COC1CN(C(=O)[C@H](F)Cl)C1)C(C)C)C(=O)N1CCC[C@H](N1)C(=O)OCC(C)(C)C2 (atropisomer, axis not shown; (M))
1170

QUERY: Report IC50 from KRAS G12V binding to BRAF (Homo sapiens (Human), UniProt P01116+P62937, G12V) testing of CO[C@@H](C)c1ncc(N2CCN(CC(F)(F)F)CC2)cc1-c1c2c3cc(c(F)cc3n1CC(F)(F)F)-c1csc(n1)C[C@H](NC(=O)[C@H](C(C)C)N1CCC3(CN(C(=O)[C@H](F)Cl)C3)C1=O)C(=O)N1CCC[C@H](N1)C(=O)OCC(C)(C)C2 (atropisomer, axis not shown; (M))
RESULT: 1230
